System: ATP;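 also: ATP exposure 15 min at 22 °C before imaging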
Assay: switch fluorescence ratio, 500 uM ATP over buffer (Cy3 cluster intensity, sum of 5 cycles each) (fold (ratio)); higher = stronger signal-on switching upon ATP binding; sequences stand for … in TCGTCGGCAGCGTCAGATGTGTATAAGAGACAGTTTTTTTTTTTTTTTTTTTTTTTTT…TC
Settings: aptamer strand: ATP DNA aptamer (quencher-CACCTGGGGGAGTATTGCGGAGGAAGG + anchor), 100 nM annealed; ATP concentration: 500 uM
Give switch fluorescence ratio for every item shown.
// return just the number, without any unit appended

Value lookup for switch fluorescence ratio; key = TAAGGGGGTC
0.981

Param item = CCAAAGGGTT ; retrieve measured switch fluorescence ratio.
1.04

If you can, please state the reported switch fluorescence ratio value of GAAGTGCTTT .
0.995

Give the measured switch fluorescence ratio of AAATCCGAAT .
1.01

Bench note: what switch fluorescence ratio did AGTCTGAGCG show?
1.03

For TCCGAGGGAT , what is its reported switch fluorescence ratio?
2.25

Fill blank: measured switch fluorescence ratio of the sequence AAGAAGAAAT is ____.
1.04

Entry under review: AGGGGTAGGA . Reported switch fluorescence ratio?
0.99

Look up switch fluorescence ratio for this sequence: AAAAAATGGA
1.01

Quick one: switch fluorescence ratio for ATTGAATGTG ?
0.973

Field request: switch fluorescence ratio | item: GTGGACGGGG
0.983

// query switch fluorescence ratio value for entry TGGATGTATG
0.99

Which switch fluorescence ratio reading was recorded for the sequence TGATTGACGG ?
0.975

Endpoint output: switch fluorescence ratio of CGTTAGGGAG . Value?
0.955

Looking for the measured switch fluorescence ratio of AGAAGAAATC , can you help?
1.02

// lookup switch fluorescence ratio for CTTCAGTCTT
1

Given TATCATGTGA , state its recorded switch fluorescence ratio.
1.01

switch fluorescence ratio for GAGGTGACTG ?
1.01

Consider the sequence TCCTTGATAT and give its measured switch fluorescence ratio.
0.995

Entry TTCTTGCTAC has what switch fluorescence ratio?
1.78

Any idea what switch fluorescence ratio was measured for TGATATGTAA ?
1.02

Dear colleague, I am looking for the recorded switch fluorescence ratio of the following sequence: GGTGTGTATC
1.01

Please give the measured switch fluorescence ratio for this sequence: CATGGCCACC
1.02

Any idea what switch fluorescence ratio was measured for TTAATTGAGG ?
0.993
